# assayed system: UniProtKB P08908
# Sequence (P08908 whole entry): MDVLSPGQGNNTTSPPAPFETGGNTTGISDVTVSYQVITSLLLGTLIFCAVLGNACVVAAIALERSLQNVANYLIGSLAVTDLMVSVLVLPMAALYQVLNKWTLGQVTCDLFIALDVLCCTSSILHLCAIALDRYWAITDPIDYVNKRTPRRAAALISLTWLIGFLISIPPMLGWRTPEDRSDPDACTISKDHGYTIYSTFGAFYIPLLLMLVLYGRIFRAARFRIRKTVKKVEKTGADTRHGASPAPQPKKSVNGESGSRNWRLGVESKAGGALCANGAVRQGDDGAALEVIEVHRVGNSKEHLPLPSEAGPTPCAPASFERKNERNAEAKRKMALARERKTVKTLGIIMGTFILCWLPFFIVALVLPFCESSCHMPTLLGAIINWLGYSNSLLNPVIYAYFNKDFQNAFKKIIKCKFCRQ
# method: Displacement of [3H]-8-OH-DPAT from 5-HT1A receptor (unknown origin) expressed in HEK293 cell membranes incubated for 15 mins by liquid scintillation spectrometry
# Design: concentration or dose not given beside the values

{"columns": ["smiles str", "inhibition, %"],
 "data": [
  ["Clc1ccc(Nc2nc(N3CCNCC3)nc3ccccc23)cc1", 88.6],
  ["Cc1ccc(Nc2nc(N3CCN(CCO)CC3)nc3ccccc23)c(C)c1", 81.2],
  ["CC(C)c1ccc(Nc2nc(N3CCN(CCO)CC3)nc3ccccc23)cc1", 42.3],
  ["COc1ccccc1Nc1nc(N2CCN(CCO)CC2)nc2ccccc12", 52],
  ["OCCN1CCN(c2nc(Nc3ccc(Cl)cc3)c3ccccc3n2)CC1", 53.8],
  ["Clc1ccc(Nc2nc(N3CCOCC3)nc3ccccc23)cc1", 16.7],
  ["CC(C)c1ccc(Nc2nc(N3CCNCC3)nc3ccccc23)cc1", 84.3],
  ["Ic1ccc(Nc2nc(N3CCNCC3)nc3ccccc23)cc1", 56.6]
]}

---

# assayed system: D(3) dopamine receptor (Homo sapiens)
# Sequence (P35462 whole entry): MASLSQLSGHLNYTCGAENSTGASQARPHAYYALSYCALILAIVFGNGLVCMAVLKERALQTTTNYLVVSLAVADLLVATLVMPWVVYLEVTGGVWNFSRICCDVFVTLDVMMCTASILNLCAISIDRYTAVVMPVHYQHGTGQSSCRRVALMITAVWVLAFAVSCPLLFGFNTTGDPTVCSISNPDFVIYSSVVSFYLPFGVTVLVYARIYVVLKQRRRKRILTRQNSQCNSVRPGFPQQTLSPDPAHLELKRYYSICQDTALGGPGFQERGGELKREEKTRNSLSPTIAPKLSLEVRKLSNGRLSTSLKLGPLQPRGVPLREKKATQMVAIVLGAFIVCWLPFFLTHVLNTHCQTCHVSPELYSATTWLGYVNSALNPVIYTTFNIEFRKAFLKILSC
# method: Displacement of [3H]-spiperone from dopamine D3 receptor (unknown origin) expressed in HEK293 cell membranes incubated for 15 mins by liquid scintillation spectrometry
# reported conditions: read-out: Ki

{"columns": ["smiles str", "Ki [nM]"],
 "data": [
  ["CC(C)c1ccc(Nc2nc(N3CCN(CCO)CC3)nc3ccccc23)cc1", 1140],
  ["OCCN1CCN(c2nc(NCc3ccccc3)c3ccccc3n2)CC1", 1440],
  ["OCCN1CCN(c2nc(Nc3ccc(Br)cc3)c3ccccc3n2)CC1", 571]
]}

---

Recorded inhibition for the following compounds
# assayed system: 5-hydroxytryptamine receptor 2A (Homo sapiens, UniProt P28223)
# Sequence (P28223 whole entry): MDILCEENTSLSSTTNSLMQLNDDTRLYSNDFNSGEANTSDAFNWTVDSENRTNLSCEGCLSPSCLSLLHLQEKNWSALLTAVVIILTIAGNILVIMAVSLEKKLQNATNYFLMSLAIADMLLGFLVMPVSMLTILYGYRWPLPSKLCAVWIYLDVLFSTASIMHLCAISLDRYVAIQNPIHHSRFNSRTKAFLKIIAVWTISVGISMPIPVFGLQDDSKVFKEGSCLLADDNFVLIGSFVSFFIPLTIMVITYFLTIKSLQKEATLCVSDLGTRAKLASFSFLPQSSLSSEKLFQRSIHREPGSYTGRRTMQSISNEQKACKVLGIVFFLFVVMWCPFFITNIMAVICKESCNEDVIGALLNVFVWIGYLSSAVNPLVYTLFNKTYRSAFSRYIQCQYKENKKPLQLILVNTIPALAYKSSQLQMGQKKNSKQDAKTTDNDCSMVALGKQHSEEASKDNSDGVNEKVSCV
# method: Displacement of [3H]ketanserin hydrochloride from 5-HT2A receptor (unknown origin) expressed in HEK293 cell membranes incubated for 15 mins by liquid scintillation spectrometry relative to control
# Parameters: concentration or dose not given beside the values
value kind: inhibition

{"columns": ["smiles str", "assayed system", "reported value"],
 "data": [
  ["Clc1ccc(Nc2nc(N3CCOCC3)nc3ccccc23)cc1", "5-hydroxytryptamine receptor 2A (Homo sapiens, UniProt P28223)", "45.3%"],
  ["CC(C)c1ccc(Nc2nc(N3CCNCC3)nc3ccccc23)cc1", "5-hydroxytryptamine receptor 2A (Homo sapiens, UniProt P28223)", "> 90%"],
  ["COc1ccccc1Nc1nc(N2CCNCC2)nc2ccccc12", "5-hydroxytryptamine receptor 2A (Homo sapiens, UniProt P28223)", "> 90%"]
]}
